test system: HCV replicon cells Huh 9B; experiment: HCV replicon assay (luciferase readout); type: cell-based
Measured Attribute: IC50

molecule="Cc1ccc(C(=O)Nc2ccc(N3CCOCC3)cc2)cc1-c1ccc(C(=O)Nc2ccc3cn[nH]c3c2)cc1 [Example 67]" measured_attribute=IC50 result="< 1000 nM"
molecule="Cc1cc(C(=O)Nc2ccc(N3CCOCC3)cc2)ccc1-c1cccc(C(=O)Nc2cccc(Br)c2)c1 [Example 64]" measured_attribute=IC50 result="< 1000 nM"

Consider the additional molecule presented here.
I'm curious: which IC50 was measured for CS(=O)(=O)N1CCN(Cc2ccc(NC(=O)c3ccc(Cl)c(-c4ccc(C(=O)Nc5ccc(N6CCOCC6)cc5)cc4)c3)cc2)CC1 [Example 265] tested on HCV replicon cells Huh 9B? < 1000 nM

* * *

system: HCV replicon cells Huh 9B; assay: HCV replicon assay (luciferase readout); format: cell-based
pIC50: −log10 of the molar value.
pIC50: recorded values

Reference set (2 entries):
structure_notation=O=C(Nc1ccc(CN2CCS(=O)(=O)CC2)cc1)c1ccc(-c2cccc(C(=O)Nc3ccc(N4CCOCC4)cc3)c2)cc1 measured_attribute=pIC50 result="5.30 to 6.00"
structure_notation=Cc1ccc(C(=O)Nc2ccc(N3CCOCC3)cc2)cc1-c1ccc(C(=O)Nc2ccc(Br)cc2)cc1 measured_attribute=pIC50 result="5.30 to 6.00"

Would you kindly share the measured pIC50 for Cc1ccc(C(=O)Nc2ccc(N3CCOCC3)cc2)cc1-c1ccc(C(=O)Nc2ccc3c(c2)OCO3)cc1 ? 5.30 to 6.00

* * *

tested on: HCV replicon cells Huh 9B; test: HCV replicon assay (luciferase readout); assay type: cell-based
pIC50: −log10 of the molar value.
# pIC50 listing for each entry below

Can you share its pIC50? I mean this molecule: Cc1ccc(C(=O)Nc2ccc(N3CCOCC3)cc2)cc1-c1ccc(C(=O)NCc2cccc(F)c2)cc1 [Example 5] 5.30 to 6.00

Likewise for Cc1ccc(C(=O)Nc2ccc(N3CCOCC3)cc2)cc1-c1ccc(C(=O)NCCN2CCCCC2)cc1 [Example 6] ? 5.30 to 6.00

// next record Cc1ccc(C(=O)Nc2ccc(N3CCOCC3)cc2)cc1-c1ccc(C(=O)NCc2ccc(N3CCOCC3)cc2)cc1 [Example 20] < 5.30

Okay, and CCCS(=O)(=O)N1CCN(Cc2ccc(NC(=O)c3ccc(-c4cc(C(=O)Nc5ccc(N6CCOCC6)cc5C)ccc4OC)cc3)cc2)CC1 [Example 260] ? > 6.00

Request: CCc1nnc(NC(=O)c2ccc(C)c(-c3ccc(C(=O)Nc4ccc(CN5CCS(=O)(=O)CC5)cc4)cc3)c2)s1 [Example 143] 5.30 to 6.00

Same again, this time with Cc1ccc(C(=O)Nc2ccc(N3CCOCC3)cc2)cc1-c1ccc(C(=O)NCc2cccc(Cl)c2F)cc1 [Example 57] 5.30 to 6.00

* * *

# key: entry, value: pIC50
tested on: HCV replicon cells Huh 9B; assay: HCV replicon assay (luciferase readout); assay type: cell-based
pIC50: −log10 of the molar value.

Worked cases, pIC50 given:
structure_notation=COc1ccc(NC(=O)c2ccc(-c3cc(C(=O)Nc4ccc(N5CCOCC5)cc4)ccc3C)cc2)cn1 tested_target="HCV replicon cells Huh 9B" result="5.30 to 6.00"
structure_notation=Cc1ccc(C(=O)Nc2ccc(N3CCOCC3)cc2)cc1-c1ccc(C(=O)Nc2ccc(C#N)cc2)cc1 tested_target="HCV replicon cells Huh 9B" result="< 5.30"
structure_notation=Cc1ccc(C(=O)Nc2ccc(N3CCOCC3)cc2)cc1-c1ccc(C(=O)NCc2cccc(Br)c2)cc1 tested_target="HCV replicon cells Huh 9B" result="5.30 to 6.00"

Shifting focus to the molecule that follows.
Form field - read-out: pIC50; system: HCV replicon cells Huh 9B; submitted item: CCCN(C)Cc1ccc(NC(=O)c2ccc(-c3cc(C(=O)Nc4ccc(N5CCOCC5)cc4)ccc3C)cc2)cc1 5.30 to 6.00

* * *

system: HCV replicon cells Huh 9B; assay: HCV replicon assay (luciferase readout); assay type: cell-based
Measured Attribute: IC50

In the examples that follow, each entry is paired with its recorded IC50.
structure_notation=Cc1ccc(C(=O)NCCCN2CCN(C)CC2)cc1-c1ccc(C(=O)Nc2ccc(N3CCOCC3)cc2)cc1 tested_target="HCV replicon cells Huh 9B" result="> 5 µM"
structure_notation=Cc1cccc(CNC(=O)c2ccc(-c3cc(C(=O)Nc4ccc(N5CCOCC5)cc4)ccc3C)cc2)c1 tested_target="HCV replicon cells Huh 9B" result="1 to 5 µM"

Form field: reported IC50 of COc1ccc(C(=O)Nc2ccc(N3CCOCC3)cc2)cc1-c1ccc(C(=O)Nc2ccc(CN3CCN(S(=O)(=O)N(C)C)CC3)cc2)cc1 < 1 µM

COc1cccc(NC(=O)c2cccc(-c3ccc(C(=O)Nc4ccc(N5CCOCC5)cc4)cc3C)c2)c1 ? < 1 µM

Taken from patent US8008303B2.
